Item-by-item account of IC50
# System Name: Amine oxidase [flavin-containing] B (Rattus norvegicus)
# Sequence (P19643 whole entry): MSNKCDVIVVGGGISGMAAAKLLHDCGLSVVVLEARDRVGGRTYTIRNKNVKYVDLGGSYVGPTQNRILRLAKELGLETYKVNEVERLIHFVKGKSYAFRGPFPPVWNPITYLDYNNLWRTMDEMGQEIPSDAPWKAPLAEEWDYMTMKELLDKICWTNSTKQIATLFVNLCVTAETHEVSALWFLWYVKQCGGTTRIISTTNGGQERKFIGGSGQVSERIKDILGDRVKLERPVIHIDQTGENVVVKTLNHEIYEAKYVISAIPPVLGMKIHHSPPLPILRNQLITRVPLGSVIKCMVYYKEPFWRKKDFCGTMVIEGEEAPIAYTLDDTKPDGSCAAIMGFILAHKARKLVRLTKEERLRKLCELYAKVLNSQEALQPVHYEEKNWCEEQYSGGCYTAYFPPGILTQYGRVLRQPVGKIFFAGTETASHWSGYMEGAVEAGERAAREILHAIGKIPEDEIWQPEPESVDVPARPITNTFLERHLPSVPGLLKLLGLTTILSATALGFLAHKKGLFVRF
Field: numeric (nM). Do not append units.

Q) IC50 lookup needed for CN(Cc1ccc(C#N)cc1)Cc1ccc(COc2ccc3cc(C#N)c(=O)oc3c2)cc1 , thanks.
A) 990

Q) For CN(Cc1ccc(COc2ccc3ccc(=O)oc3c2)cc1)Cc1cccc(C#N)c1 then?
A) 2800
